Species: Rattus norvegicus
Type: toxicity, organism-based, Sprague-Dawley
Details: in vivo, sc, 2 mg/kg, 24 h, tissue Blood, route mini-PUMP - SUBCUTANEOUS, dose level High, time 1 day, vehicle 100 % SALINE
Description: DrugMatrix - Regimen: Single
measurement.label: ABSOLUTE MONOCYTE (cells/µL)
I only need the number, in cells/µL, no unit after it.

Task: Fill in: ABSOLUTE MONOCYTE of CC(C)NCC(O)c1ccc(O)c(O)c1 (stereo unspecified) [ISOPROTERENOL] is ___
Output: 150

---

Organism: Rattus norvegicus
Assay: DrugMatrix - Regimen: Daily Repeat
Assay type: toxicity, organism-based, Sprague-Dawley
Parameters: regimen Daily Repeat, gender Male, age 6-8 weeks
Details: in vivo, po, 50 mg/kg, 120 h, tissue Plasma, route oral GAVAGE, dose level Low, time 5 day, vehicle .5 % CMC
Kindly supply the reported ALBUMIN values for the records listed here.
I only need the number, in G/DL, no unit after it.

Task: Fill in: ALBUMIN of "CN(C)[C@@H]1C(O)=C(C(N)=O)C(=O)[C@@]2(O)C(O)=C3C(=O)c4c(O)ccc(Cl)c4[C@@](C)(O)[C@H]3C[C@@H]12" is ___
Output: 4.03

Task: Fill in: ALBUMIN of Cc1cccc(C)c1OCC(C)N (centres undefined) is ___
Output: 4.23

Task: Fill in: ALBUMIN of NC1CCN(c2nc3c(cc2F)c(=O)c(C(=O)O)cn3-c2ccc(F)cc2F)C1 (centres undefined) is ___
Output: 3.43

Task: Fill in: ALBUMIN of CCN1CCC[C@H]1CNC(=O)c1cc(S(N)(=O)=O)ccc1OC [LEVOSULPIRIDE] is ___
Output: 3.7

---

Species: Rattus norvegicus
Experiment: DrugMatrix - Regimen: Daily Repeat
Format: toxicity, organism-based, Sprague-Dawley
Design: regimen Daily Repeat, gender Male, age 6-8 weeks
Conditions: in vivo, sc, 0 mg/kg, 120 h, tissue Plasma, route subcutaneous, dose level Control, time 5 day, […]
measurement.label: ALANINE AMINOTRANSFERASE (u/L)
I only need the number, in u/L, no unit after it.

Task: Fill in: ALANINE AMINOTRANSFERASE of "Oc1c(Cl)cc(Cl)c(Cl)c1Cc1c(O)c(Cl)cc(Cl)c1Cl" is ___
Output: 48.83

Task: Fill in: ALANINE AMINOTRANSFERASE of "O=C(Nc1ccc(Br)cc1)c1cc(Br)cc(Br)c1O" is ___
Output: 51.17

Task: Fill in: ALANINE AMINOTRANSFERASE of CC(C)(C)CC(C)(C)c1ccc(OCCOCC[N+](C)(C)Cc2ccccc2)cc1.[Cl-] [BENZETHONIUM CHLORIDE] is ___
Output: 48.83

Task: Fill in: ALANINE AMINOTRANSFERASE of CCN(CC)CCOCCC1=CCC2CC1C2(C)C (stereo not given) is ___
Output: 50

Task: Fill in: ALANINE AMINOTRANSFERASE of CCC(=O)O[C@]1(C(=O)CCl)[C@@H](C)C[C@H]2[C@@H]3CCC4=CC(=O)C=C[C@]4(C)[C@@]3(F)[C@@H](O)C[C@@]21C [CLOBETASOL PROPIONATE] is ___
Output: 51.17

---

Kindly supply the reported TOTAL PROTEIN values for the records listed here.
Species: Rattus norvegicus
Experiment: DrugMatrix - Regimen: Daily Repeat
Assay type: toxicity, organism-based, Sprague-Dawley
Set-up: regimen Daily Repeat, gender Male, age 6-8 weeks
Details: in vivo, po, 1500 mg/kg, 120 h, tissue Plasma, route oral GAVAGE, dose level High, time 5 day, vehicle .5 % CMC
I only need the number, in G/DL, no unit after it.

Task: Fill in: TOTAL PROTEIN of "CN(C)[C@@H]1C(O)=C(C(N)=O)C(=O)[C@@]2(O)C(O)=C3C(=O)c4c(O)ccc(Cl)c4[C@@](C)(O)[C@H]3C[C@@H]12" is ___
Output: 5.23

Task: Fill in: TOTAL PROTEIN of "O=c1cnn([C@@H]2O[C@H](CO)[C@@H](O)[C@H]2O)c(=O)[nH]1" is ___
Output: 4.83

Task: Fill in: TOTAL PROTEIN of "CC(C)Oc1ccc2c(=O)c(-c3ccccc3)coc2c1" is ___
Output: 6.17

Task: Fill in: TOTAL PROTEIN of COC(=O)Nc1nc2ccc([S+]([O-])c3ccccc3)cc2[nH]1 (centres undefined) is ___
Output: 5.77

---

Organism: Rattus norvegicus
Assay: DrugMatrix - Regimen: Daily Repeat
Assay type: toxicity, organism-based, Sprague-Dawley
Design: regimen Daily Repeat, gender Male, age 6-8 weeks
Conditions: in vivo, po, 0 mg/kg, 120 h, tissue Blood, route oral GAVAGE, dose level Control, time 5 day, […]
measurement.label: ERYTHROCYTE COUNT (x10E6/uL)
I only need the number, in x10E6/uL, no unit after it.

Task: Fill in: ERYTHROCYTE COUNT of "CO[C@H]1/C=C/O[C@@]2(C)Oc3c(C)c(O)c4c(O)c(c(/C=N/N5CCN(C6CCCC6)CC5)c(O)c4c3C2=O)NC(=O)/C(C)=C\C=C\[C@H](C)[C@H](O)[C@@H](C)[C@@H](O)[C@@H](C)[C@H](OC(C)=O)[C@@H]1C" is ___
Output: 5.84

Task: Fill in: ERYTHROCYTE COUNT of CC(C)(C)NC(=O)[C@H]1CC[C@H]2[C@@H]3CC[C@H]4NC(=O)C=C[C@]4(C)[C@H]3CC[C@]12C [FINASTERIDE] is ___
Output: 5.19

Task: Fill in: ERYTHROCYTE COUNT of Clc1ccc(COC(Cn2ccnc2)c2ccc(Cl)cc2Cl)cc1 (centres undefined) is ___
Output: 5.31

Task: Fill in: ERYTHROCYTE COUNT of COc1cc(N)c(Cl)cc1C(=O)NC1CCN(CCCOc2ccc(F)cc2)CC1OC (centres undefined) [CISAPRIDE] is ___
Output: 5.61

---

Species on record: Rattus norvegicus
Test: DrugMatrix - Regimen: Daily Repeat
Assay type: toxicity, organism-based, Sprague-Dawley
Set-up: regimen Daily Repeat, gender Male, age 6-8 weeks
Conditions: in vivo, po, 10 mg/kg, 120 h, tissue Plasma, route oral GAVAGE, dose level Low, time 5 day, vehicle .5 % CMC
Kindly supply the reported TOTAL BILIRUBIN values for the records listed here.
I only need the number, in mg/dL, no unit after it.

Task: Fill in: TOTAL BILIRUBIN of CNCCC(Oc1ccc(C(F)(F)F)cc1)c1ccccc1 (centres undefined) is ___
Output: 0.43

Task: Fill in: TOTAL BILIRUBIN of "O=C1CN=C(c2ccccc2Cl)c2cc([N+](=O)[O-])ccc2N1" is ___
Output: 0.13

Task: Fill in: TOTAL BILIRUBIN of "Fc1ccc(C(c2ccc(F)cc2)N2CCN(C/C=C/c3ccccc3)CC2)cc1" is ___
Output: 0.2

Task: Fill in: TOTAL BILIRUBIN of O=C1C(CC[S+]([O-])c2ccccc2)C(=O)N(c2ccccc2)N1c1ccccc1 (centres undefined) is ___
Output: 0.27

---

Kindly supply the reported ASPARTATE AMINOTRANSFERASE values for the records listed here.
Organism: Rattus norvegicus
Test: DrugMatrix - Regimen: Daily Repeat
Type: toxicity, organism-based, Sprague-Dawley
Design: regimen Daily Repeat, gender Male, age 6-8 weeks
Conditions: in vivo, po, 10 mg/kg, 120 h, tissue Plasma, route oral GAVAGE, dose level Low, time 5 day, vehicle .5 % CMC
I only need the number, in u/L, no unit after it.

Task: Fill in: ASPARTATE AMINOTRANSFERASE of "Fc1ccc(C(c2ccc(F)cc2)N2CCN(C/C=C/c3ccccc3)CC2)cc1" is ___
Output: 84.33

Task: Fill in: ASPARTATE AMINOTRANSFERASE of "O=C1CN=C(c2ccccc2Cl)c2cc([N+](=O)[O-])ccc2N1" is ___
Output: 97

Task: Fill in: ASPARTATE AMINOTRANSFERASE of CNCCC(Oc1ccc(C(F)(F)F)cc1)c1ccccc1 (centres undefined) is ___
Output: 55

Task: Fill in: ASPARTATE AMINOTRANSFERASE of O=C1C(CC[S+]([O-])c2ccccc2)C(=O)N(c2ccccc2)N1c1ccccc1 (centres undefined) is ___
Output: 86.67

---

Species on record: Rattus norvegicus
Experiment: DrugMatrix - Regimen: Daily Repeat
Assay type: toxicity, organism-based, Sprague-Dawley
Design: regimen Daily Repeat, gender Male, age 6-8 weeks
Conditions: in vivo, po, 0 mg/kg, 72 h, tissue Plasma, route oral GAVAGE, dose level Control, time 3 day, vehicle 100 % WATER
measurement.label: TOTAL PROTEIN
Report field: quantity (unit follows the number).

Task: Fill in: TOTAL PROTEIN of "Cn1c(=O)c2[nH]cnc2n(C)c1=O.O" is ___
Output: 5.85 G/DL

Task: Fill in: TOTAL PROTEIN of CCN(CC)CCNC(=O)c1cc(S(C)(=O)=O)ccc1OC [TIAPRIDE] is ___
Output: 6.1 G/DL

Task: Fill in: TOTAL PROTEIN of CN1[C@@H]2CC[C@H]1C[C@@H](OC(=O)C(CO)c1ccccc1)C2 (stereo partly drawn) is ___
Output: 5.65 G/DL

Task: Fill in: TOTAL PROTEIN of CN(C)CCOC(c1ccccc1)c1ccccc1 [DIPHENHYDRAMINE] is ___
Output: 5.77 G/DL

Task: Fill in: TOTAL PROTEIN of "Oc1cccc(O)c1O" is ___
Output: 6.87 G/DL

Task: Fill in: TOTAL PROTEIN of "Cc1ccc(NC(=O)c2ccc(CN3CCN(C)CC3)cc2)cc1Nc1nccc(-c2cccnc2)n1" is ___
Output: 6.1 G/DL

Task: Fill in: TOTAL PROTEIN of "C[C@]12C=CC(=O)C=C1CC[C@@H]1[C@@H]2[C@@H](O)C[C@@]2(C)[C@H]1CC[C@]2(O)C(=O)CO" is ___
Output: 5.87 G/DL

Task: Fill in: TOTAL PROTEIN of NNc1nncc2ccccc12 [HYDRALAZINE] is ___
Output: 5.77 G/DL

Task: Fill in: TOTAL PROTEIN of CC(C)NCC(O)c1ccc(NS(C)(=O)=O)cc1 (stereo not drawn) is ___
Output: 5.83 G/DL

Task: Fill in: TOTAL PROTEIN of "CS(=O)(=O)c1ccc([C@@H](O)[C@@H](CO)NC(=O)C(Cl)Cl)cc1" is ___
Output: 6.1 G/DL

Task: Fill in: TOTAL PROTEIN of "CN(C)CC[C@@H](c1ccc(Cl)cc1)c1ccccn1" is ___
Output: 6.1 G/DL

Task: Fill in: TOTAL PROTEIN of CC(C)(C)CC(C)(C)c1ccc(OCCOCC[N+](C)(C)Cc2ccccc2)cc1.[Cl-] [BENZETHONIUM CHLORIDE] is ___
Output: 5.77 G/DL

Task: Fill in: TOTAL PROTEIN of O.O.O.O.O.O.[Cl-].[Cl-].[Sr+2] [STRONTIUM CHLORIDE HEXAHYDRATE] is ___
Output: 6.1 G/DL
